Target: Opioid receptors; delta & kappa (Homo sapiens) (UniProt P41145+P41143)
Sequence (P41145 whole entry, looked up, one chain of several): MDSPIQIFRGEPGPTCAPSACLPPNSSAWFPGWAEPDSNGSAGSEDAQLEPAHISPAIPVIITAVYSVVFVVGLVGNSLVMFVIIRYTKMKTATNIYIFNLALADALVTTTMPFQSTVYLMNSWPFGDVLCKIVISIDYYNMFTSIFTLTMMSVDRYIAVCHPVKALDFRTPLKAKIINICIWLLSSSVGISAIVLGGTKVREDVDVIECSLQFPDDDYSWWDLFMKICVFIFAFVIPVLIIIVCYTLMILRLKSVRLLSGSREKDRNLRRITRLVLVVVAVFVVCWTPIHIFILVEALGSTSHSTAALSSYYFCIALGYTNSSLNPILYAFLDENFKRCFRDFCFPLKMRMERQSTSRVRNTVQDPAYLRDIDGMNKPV
Experiment: Selectivity ratio for kappa and delta opioid receptor binding
Format: protein assay
Observable: Selectivity ratio

>>> value_reported("C=C(C)CN1CCC23c4c5ccc(OC)c4O[C@H]2c2[nH]c4ccccc4c2C[C@@]3(O)C1C5 (stereo partly specified)")
"> 28"
>>> value_reported("C=C(C)CN1CCC23c4c5ccc(O)c4O[C@H]2c2ncc(-c4ccc(Cl)cc4)cc2C[C@@]3(O)C1C5 (stereo partly specified)")
19
>>> value_reported("C=C(C)CN1CCC23c4c5ccc(OC)c4O[C@H]2c2ncc(-c4ccc(Cl)cc4)cc2C[C@@]3(O)C1C5 (stereo partly specified)")
12
>>> value_reported("C=C(C)CN1CCC23c4c5ccc(O)c4O[C@H]2C(=O)/C(=C/c2ccccc2)C[C@@]3(O)C1C5 (stereo partly specified)")
21
>>> value_reported("C=C(C)CN1CCC23c4c5ccc(OC)c4O[C@H]2C(=O)/C(=C/c2ccccc2)C[C@@]3(O)C1C5 (stereo partly specified)")
"> 2"

Turning to the following compound.
Please tell me: Selectivity ratio of C=C(C)CN1CCC23c4c5ccc(OC)c4O[C@H]2c2oc4ccccc4c2C[C@@]3(O)C1C5 (stereo partly specified) , system Opioid receptors; delta & kappa (Homo sapiens) (UniProt P41145+P41143)?
230

====

Molecular target: Delta-type opioid receptor (Homo sapiens, UniProt P41143)
Sequence (P41143 whole entry): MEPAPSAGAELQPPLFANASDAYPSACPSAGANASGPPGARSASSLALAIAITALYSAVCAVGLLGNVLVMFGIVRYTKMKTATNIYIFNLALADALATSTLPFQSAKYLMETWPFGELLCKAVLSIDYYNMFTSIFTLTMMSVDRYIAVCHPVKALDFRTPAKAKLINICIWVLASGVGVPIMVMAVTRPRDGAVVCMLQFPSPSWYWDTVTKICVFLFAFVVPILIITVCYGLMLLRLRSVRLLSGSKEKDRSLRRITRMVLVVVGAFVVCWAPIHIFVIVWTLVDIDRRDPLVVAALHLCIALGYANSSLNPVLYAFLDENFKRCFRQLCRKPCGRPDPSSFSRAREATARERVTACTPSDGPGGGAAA
Test: Displacement of [3H]DADLE from Opioid receptor delta 1
This section presents compounds with their documented Ki values.
Could you give me the number in nM? Just the number is fine.

Example cases with answers are listed next.
>>> value_reported("C=C(C)CN1CCC23c4c5ccc(O)c4O[C@H]2C(=O)C2(Cc4ccccc4C2)C[C@@]3(O)C1C5 (some centres undefined)")
41
>>> value_reported("C=C(C)CN1CCC23c4c5ccc(O)c4O[C@H]2C(=O)/C(=C/c2ccccc2)C[C@@]3(O)C1C5 (some centres undefined)")
210

Pending compound:
What value of Ki has been recorded for this entry: C=C(C)CN1CCC23c4c5ccc(OC)c4O[C@H]2c2ncc(-c4ccc(Cl)cc4)cc2C[C@@]3(O)C1C5 (some centres undefined)
260

====

Each item that follows carries a reported Selectivity ratio.
Target: Opioid receptors; mu & delta (Homo sapiens) (UniProt P41143+P35372)
Sequence (P35372 whole entry, looked up, one chain of several): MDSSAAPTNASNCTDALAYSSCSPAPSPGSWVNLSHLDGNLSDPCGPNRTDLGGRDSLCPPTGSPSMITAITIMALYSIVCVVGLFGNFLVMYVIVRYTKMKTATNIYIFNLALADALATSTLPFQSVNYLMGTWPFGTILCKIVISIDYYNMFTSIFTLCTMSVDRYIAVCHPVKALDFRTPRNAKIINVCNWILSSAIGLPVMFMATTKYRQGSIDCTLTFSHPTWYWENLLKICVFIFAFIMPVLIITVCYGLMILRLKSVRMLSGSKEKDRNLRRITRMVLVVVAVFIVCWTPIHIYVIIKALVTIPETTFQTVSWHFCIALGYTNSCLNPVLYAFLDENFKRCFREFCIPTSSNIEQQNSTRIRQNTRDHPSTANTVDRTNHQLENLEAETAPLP
Test: Selectivity ratio for mu and delta opioid receptor binding
Format: protein assay
Just the number, please.

So what does the record say about Selectivity ratio for C=C(C)CN1CCC23c4c5ccc(OC)c4O[C@H]2c2oc4ccccc4c2C[C@@]3(O)C1C5 (stereo partly specified) ?
140

Lookup C=C(C)CN1CCC23c4c5ccc(O)c4O[C@H]2c2n[nH]cc2C[C@@]3(O)C1C5 (stereo partly specified)
4

What about this compound? C=C(C)CN1CCC23c4c5ccc(O)c4O[C@H]2C(=O)/C(=C/c2ccccc2)C[C@@]3(O)C1C5 (stereo partly specified)
21

====

Reported values: pKi for Mu-type opioid receptor (Homo sapiens, UniProt P35372), one per item.
In plain terms, pKi is the concentration in mol/L turned into minus its base-10 logarithm.

Consider the reported pKi for these compounds:
>>> value_reported("C=C(C)CN1CCC23c4c5ccc(O)c4O[C@H]2C(=O)/C(=C/c2ccccc2)C[C@@]3(O)C1C5 (some centres not stated)")
5.35
>>> value_reported("C=C(C)CN1CCC23c4c5ccc(O)c4O[C@H]2c2[nH]ncc2C[C@@]3(O)C1C5 (some centres not stated)")
6.85
>>> value_reported("C=C(C)CN1CCC23c4c5ccc(O)c4O[C@H]2c2[nH]c4ccccc4c2C[C@@]3(O)C1C5 (some centres not stated)")
5.10

Sample C=C(C)CN1CCC23c4c5ccc(O)c4O[C@H]2C(=O)C2(Cc4ccccc4C2)C[C@@]3(O)C1C5 (some centres not stated) — what was its pKi?
5.70

For C=C(C)CN1CCC23c4c5ccc(O)c4O[C@H]2c2oc4ccccc4c2C[C@@]3(O)C1C5 (some centres not stated) then?
5.89

Recorded values, source ChEMBL document CHEMBL1134426.
